This collection of values is drawn from the supplement of paper PMC10307832.

system: LXF-289; assay: relative viability (nuclei count vs DMSO), 5 days (fraction); higher = more cells survive; settings: first compound 0.6325 µM
Could you please report measured relative viability for the items listed next?

compound="CN1CCN(CCOc2cc(OC3CCOCC3)c3c(Nc4c(Cl)ccc5c4OCO5)ncnc3c2)CC1 [Saracatinib] + CS(=O)(=O)N1CCN(Cc2cc3nc(-c4cccc5[nH]ncc45)nc(N4CCOCC4)c3s2)CC1 [Pictilisib] (partner 1 µM)" result=0.8

--- query ---
Query (compound): CN1CCN(CCOc2cc(OC3CCOCC3)c3c(Nc4c(Cl)ccc5c4OCO5)ncnc3c2)CC1 [Saracatinib] + CC1(C)CCC(c2ccc(Cl)cc2)=C(CN2CCN(c3ccc(C(=O)NS(=O)(=O)c4ccc(N[C@H](CCN5CCOCC5)CSc5ccccc5)c(S(=O)(=O)C(F)(F)F)c4)cc3)CC2)C1 [Navitoclax] (partner 0.5 µM) ; field requested: relative viability
0.993
